The values you see were collected from ChEMBL document CHEMBL5291721.

target: Alpha-2A adrenergic receptor (Homo sapiens); assay type: functional, cell-based; further: assay procedure not described here
Sequence (P08913 whole entry): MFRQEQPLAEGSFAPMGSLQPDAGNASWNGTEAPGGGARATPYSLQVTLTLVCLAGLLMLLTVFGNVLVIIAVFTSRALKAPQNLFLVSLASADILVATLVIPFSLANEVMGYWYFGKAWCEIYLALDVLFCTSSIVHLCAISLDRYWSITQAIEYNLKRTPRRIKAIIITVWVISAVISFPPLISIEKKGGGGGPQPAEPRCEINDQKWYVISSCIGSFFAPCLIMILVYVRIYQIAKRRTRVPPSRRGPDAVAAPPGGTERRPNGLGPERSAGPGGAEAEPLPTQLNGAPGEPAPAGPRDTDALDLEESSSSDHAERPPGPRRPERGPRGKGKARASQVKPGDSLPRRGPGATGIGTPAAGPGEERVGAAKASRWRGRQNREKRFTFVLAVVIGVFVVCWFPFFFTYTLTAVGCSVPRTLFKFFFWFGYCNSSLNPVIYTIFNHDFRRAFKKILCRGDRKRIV
Catalogue of compounds with associated AC50
observable: AC50

| compound | systemName | measurement |
| --- | --- | --- |
| O=C(O)COCCN1CCN(C(c2ccccc2)c2ccc(Cl)cc2)CC1 (stereo not given) [CETIRIZINE] | Alpha-2A adrenergic receptor (Homo sapiens) | > 10 µM |
| COc1cc(C(=O)OCc2cccc(COC(=O)c3cc(OC)c(OC)c(OC)c3)n2)cc(OC)c1OC [PIROZADIL] | Alpha-2A adrenergic receptor (Homo sapiens) | > 30 µM |
| O=C(O)c1cccnc1Nc1cccc(C(F)(F)F)c1 [NIFLUMIC ACID] | Alpha-2A adrenergic receptor (Homo sapiens) | > 10 µM |
| NC(=O)NC(=O)Cc1ccccc1 [PHENACEMIDE] | Alpha-2A adrenergic receptor (Homo sapiens) | > 10 µM |
| C[C@]12CCC(=O)C[C@@H]1CC[C@@H]1[C@@H]2CC[C@]2(C)[C@@H](O)CC[C@@H]12 [STANOLONE] | Alpha-2A adrenergic receptor (Homo sapiens) | > 30 µM |
